Listed here: items and their measured IC50.
# assay_explanation: microbe, parasite or virus in culture
# condition_info: Mycobacterium tuberculosis, 72 h, read-out: pIC50 (converted)

compound: COc1cccc(CNc2ccccn2)c1O
unit_abbreviation: µM
relation_symbol: >
IC50: 501
--
compound: Cc1ccc(F)c(S(=O)(=O)N2C[C@H](C3CC3)[C@@H](N)C2)c1
unit_abbreviation: µM
relation_symbol: >
IC50: 501
--
compound: O=C(CC1C=CCC1)N1CCN(Cc2ccco2)CC1 (stereo not drawn)
unit_abbreviation: µM
relation_symbol: =
IC50: 184
--
compound: O=C(NC1CCCc2occc21)c1cccnc1 (stereo not drawn)
unit_abbreviation: µM
relation_symbol: =
IC50: 57.8
--
compound: CNC(=O)c1sc(NC2CC2)nc1C
unit_abbreviation: µM
relation_symbol: =
IC50: 72.7
--
compound: CCOc1cccc(CNc2nc(N(C)C)n[nH]2)c1
unit_abbreviation: µM
relation_symbol: =
IC50: 57.4
--
compound: Cc1cccc(NCC(=O)NC2CCCCC2)n1
unit_abbreviation: µM
relation_symbol: =
IC50: 152
--
compound: COc1ccc(C(=O)NCc2ncnn2C)cc1Br
unit_abbreviation: µM
relation_symbol: =
IC50: 326
--
compound: CN(CCc1ccc(Br)cc1)C(=O)CCCN
unit_abbreviation: µM
relation_symbol: =
IC50: 179
--
compound: Cc1cccc(C2(O)CCN(Cc3ccccc3N3CCCC3)CC2)c1
unit_abbreviation: µM
relation_symbol: =
IC50: 12.1
--
compound: FC(F)(F)Oc1ccc(-c2noc([C@@H]3Cc4nc[nH]c4CN3)n2)cc1
unit_abbreviation: µM
relation_symbol: >
IC50: 50.1
--
compound: O=C(NCCSCc1cccc(Cl)c1)C1CNCCO1 (stereo not drawn)
unit_abbreviation: µM
relation_symbol: =
IC50: 266
--
compound: Cc1cncc(NCc2ccccc2N2CCOCC2)c1
unit_abbreviation: µM
relation_symbol: =
IC50: 6.63
--
compound: NC(=O)CCS(=O)(=O)CCN1CCCCCC1
unit_abbreviation: µM
relation_symbol: =
IC50: 158
--
compound: CNS(=O)(=O)c1ccc(NCc2ccco2)cc1OC
unit_abbreviation: µM
relation_symbol: =
IC50: 437
--
compound: COc1ccc(-c2noc(C(C)n3ccnc3)n2)cn1 (stereo not drawn)
unit_abbreviation: µM
relation_symbol: =
IC50: 300
--
compound: CC(CNCC(F)(F)CO)c1ccccc1 (stereo not drawn)
unit_abbreviation: µM
relation_symbol: >
IC50: 501
--
compound: Cc1cnc(N2CCCC(c3ccccc3)C2)nc1-c1ncnn1C (stereo not drawn)
unit_abbreviation: µM
relation_symbol: >
IC50: 50.1
--
compound: COc1ccc(CC(=O)Nc2c(C)nc(N3CCCC3)nc2C)cc1
unit_abbreviation: µM
relation_symbol: >
IC50: 50.1
--
compound: COc1ccc(CC2CCN2)cc1 (stereo not drawn)
unit_abbreviation: µM
relation_symbol: =
IC50: 212
--
compound: CNC(=O)NC(=O)CCN1CCc2ccccc2C1
unit_abbreviation: µM
relation_symbol: =
IC50: 196
--
compound: OCCNCCNCc1cccc(Cl)c1Cl
unit_abbreviation: µM
relation_symbol: =
IC50: 199
--
compound: O=C(Cn1cnnn1)Nc1ccc(SC(F)F)cc1
unit_abbreviation: µM
relation_symbol: =
IC50: 180

----------
# Tested on: Leishmania donovani
# assay_explanation: Leishmania intramacrophage assay
# Type: functional, organism-based
Listed here: items and their measured pIC50.

chemical_smiles: Cc1nc2c(c(NCc3ccc(-c4ccccn4)s3)n1)CCNCC2
pIC50: 4.913

chemical_smiles: Cc1cc(=O)n2nc(Oc3ccc(Cl)c(C)c3)sc2n1
pIC50: 4.378

chemical_smiles: Cc1ccc(-c2cc(CNc3ncnc4c3CCNCC4)no2)cc1
pIC50: 4.865

----------
# system_under_test: ClpP1P2 (Mycobacterium tuberculosis (strain ATCC 25618 / H37Rv), UniProt P9WPC3+P9WPC5)
# assay_explanation: in vitro assay to detect presence of AMC directly proportional to the activity of ClpP1P2. GHDDI collaboration.

compound: CCOC1CCN(C(=O)NCCc2ccn(-c3ccccc3)n2)CC1
system_under_test: ClpP1P2 (Mycobacterium tuberculosis (strain ATCC 25618 / H37Rv), UniProt P9WPC3+P9WPC5)
IC50: > 100 µM

compound: Cc1ccc(CN2C[C@@H]3CCN(Cc4ccncc4)C(=O)[C@H]3C2)s1
system_under_test: ClpP1P2 (Mycobacterium tuberculosis (strain ATCC 25618 / H37Rv), UniProt P9WPC3+P9WPC5)
IC50: 34.3 µM

compound: CS(=O)(=O)N1CCCCCC1C1CCN(c2ncccc2C#N)CC1 (stereo unspecified)
system_under_test: ClpP1P2 (Mycobacterium tuberculosis (strain ATCC 25618 / H37Rv), UniProt P9WPC3+P9WPC5)
IC50: > 100 µM

compound: CC(C)c1ncc2c(n1)CN(CC(=O)Nc1ccc(Cl)cn1)CC2
system_under_test: ClpP1P2 (Mycobacterium tuberculosis (strain ATCC 25618 / H37Rv), UniProt P9WPC3+P9WPC5)
IC50: > 100 µM

compound: CC(C)CNC(=O)c1cn(-c2ccccn2)c(=O)c2ccccc12
system_under_test: ClpP1P2 (Mycobacterium tuberculosis (strain ATCC 25618 / H37Rv), UniProt P9WPC3+P9WPC5)
IC50: > 100 µM

compound: COc1cc(CN2CCCCCC2c2cccs2)cc(OC)c1O (stereo unspecified)
system_under_test: ClpP1P2 (Mycobacterium tuberculosis (strain ATCC 25618 / H37Rv), UniProt P9WPC3+P9WPC5)
IC50: 16.8 µM

----------
# System: Leishmania donovani
# assay_explanation: Leishmania intramacrophage assay
# Assay type: functional, organism-based
# condition_info: Leishmania donovani
Lab note: compare IC50 with 20 µM, writing 1 if less and 0 if equal or more.

compound: COc1ccc(C2=Nn3c(CCN)nnc3-c3ccccc3C2)cc1
label_value: 1

compound: CCCC1CCCN(Cc2csc(-c3ncccn3)n2)CC1 (stereo unspecified)
label_value: 1

compound: Cn1cc(CN2CCC(F)(F)C3(CCN(c4ncccn4)C3)C2)cn1 (stereo unspecified)
label_value: 0

compound: COc1ccc(-c2cc(CNc3ncnc4c3CCNCC4)no2)cc1
label_value: 0

compound: Cc1c(CN2CC[C@@H](N3CCC(O)CC3)[C@H](O)C2)[nH]c2ccc(Cl)cc12
label_value: 1

compound: N#CC1CCCN(c2nc(-c3ccccc3)nc3c2CCNCC3)C1 (stereo unspecified)
label_value: 0

----------
# assay_explanation: microbe, parasite or virus in culture
# condition_info: Mycobacterium tuberculosis, 72 h, read-out: pIC50 (converted)
Listed here: items and their measured IC50.

compound: Cc1cnc(C(=O)NCCSCc2ccco2)cn1
IC50: > 501 µM

compound: O=C(c1cc(COc2ccc3c(c2)OCO3)[nH]n1)N1CCCCO1
IC50: > 50.1 µM

compound: Cc1cc(NC2CCC(=O)N(C)C2)n2nccc2n1 (centres undefined)
IC50: > 50.1 µM

compound: Cc1cc(NCCC(=O)NC(C)C)nc(-c2ccncc2)n1
IC50: > 50.1 µM

----------
# Test system: Leishmania donovani
# assay_explanation: Leishmania intramacrophage assay
# Format: functional, organism-based
# condition_info: Leishmania donovani

compound: CCOc1c(Cl)cc(Cl)cc1CNCCCn1ccnc1
IC50: 16 µM
--
compound: FC1(F)CCN(Cc2ccccn2)CC12CCN(c1ncccn1)C2 (configuration not stated)
IC50: > 50.1 µM
--
compound: CCc1cc(N2CCCNCC2)n2nc(C)c(C)c2n1
IC50: > 50.1 µM
--
compound: Cc1nc(C2(O)CCCNCC2)sc1CCOc1ccccc1.Cl (configuration not stated)
IC50: 24.2 µM
--
compound: O=C(NCCN1CCOCC1)c1ccc(-n2ccc3ccccc32)s1
IC50: > 50.1 µM
--
compound: CO[C@H]1[C@@H]2CC[C@H]1CN(c1nc(C)nc3sccc13)C2
IC50: > 50.1 µM
--
compound: COCCNC(=O)c1ccc2ccc(N3CCN(CC4CC4)CC3)n2c1
IC50: > 50.1 µM

----------
# assay_explanation: microbe, parasite or virus in culture
# condition_info: Mycobacterium tuberculosis, 72 h, read-out: pIC50 (converted)
Listed here: items and their measured log10 IC50.
attribute_measured: log10 IC50 (log10 of the value in µM)

compound: CCOc1ccc(N(CC(=O)c2ccccc2)C2=NCCCCC2)cc1
attribute_measured: log10 IC50
recorded_result: 1.35

compound: COCCC(=O)N1CCN(CC2CC2)c2ccccc21
attribute_measured: log10 IC50
recorded_result: 1.07

compound: Cc1nc(CN(C)CC2CCCN2c2cccnn2)nc2ccccc12 (stereo not drawn)
attribute_measured: log10 IC50
recorded_result: 1.03

compound: CC1CCCCN1C(=O)c1coc(COc2cccc3cnccc23)n1 (stereo not drawn)
attribute_measured: log10 IC50
recorded_result: 1.64

compound: Cc1ccc(CCNC(=O)CSCCN2CCCC2)o1
attribute_measured: log10 IC50
recorded_result: 2.49

compound: COCCN(Cc1ccsc1)C(=O)CC1CCNC1 (stereo not drawn)
attribute_measured: log10 IC50
recorded_result: 2.27

compound: CC(=O)NCCCNCc1ccc(Br)c2cccnc12
attribute_measured: log10 IC50
recorded_result: 2.44

compound: O=C(CCC(F)(F)F)N1CCCC(CO)(CC2CC2)C1 (stereo not drawn)
attribute_measured: log10 IC50
recorded_result: 0.40

compound: N#Cc1cccc(N2CCCC(CO)(Cc3ccccc3F)C2)n1 (stereo not drawn)
attribute_measured: log10 IC50
recorded_result: 1.10

compound: Cc1c(Br)cccc1S(=O)(=O)NCCN
attribute_measured: log10 IC50
recorded_result: 2.33

compound: NCc1noc(-c2cccc(Br)c2)n1
attribute_measured: log10 IC50
recorded_result: 2.10

compound: O=S(=O)(NC1CCCC1)c1cncc(Cl)c1
attribute_measured: log10 IC50
recorded_result: 2.35

compound: CCCc1nn(Cc2ccc(Br)s2)c(=O)o1
attribute_measured: log10 IC50
recorded_result: 1.50

compound: c1cc(CNCc2ccc(-n3cncn3)nc2)cc(OC2CCCC2)c1
attribute_measured: log10 IC50
recorded_result: 1.54

compound: Cc1cc(NC(=O)Cc2ccc3c(c2)OCCO3)no1
attribute_measured: log10 IC50
recorded_result: 2.43

compound: COc1ccnc(CN2CCCC(CCc3ccc(F)cc3)C2)c1OC (stereo not drawn)
attribute_measured: log10 IC50
recorded_result: 1.54

compound: CC1CCN(C(CN)c2cccs2)CC1 (stereo not drawn)
attribute_measured: log10 IC50
recorded_result: 2.34

compound: O=C(CCN1CCCC1c1cccc2c1OCCO2)N1CCCCC1 (stereo not drawn)
attribute_measured: log10 IC50
recorded_result: 1.40

compound: CC(C)Cc1ncc2c(n1)CN(c1nccc(NC(C)C)n1)C2
attribute_measured: log10 IC50
recorded_result: 1.38

compound: Cc1ccc(C(CN)N2CCCC2)o1 (stereo not drawn)
attribute_measured: log10 IC50
recorded_result: 2.00

compound: O=C(Nc1nnc(-c2cccs2)s1)NC1CCCNC1 (stereo not drawn)
attribute_measured: log10 IC50
recorded_result: 2.10

compound: Cc1ccc2c(c1)nc(CN)n2C
attribute_measured: log10 IC50
recorded_result: 2.36

compound: COc1c(C)cc(Br)cc1C(=O)Nc1nnn(C)n1
attribute_measured: log10 IC50
recorded_result: 2.31

compound: O=C(c1cc(Br)c[nH]1)N1CCN2CCCCC2C1 (stereo not drawn)
attribute_measured: log10 IC50
recorded_result: 2.37

compound: O=C(c1cc(-c2ccn(CC3CC3)n2)n2ccccc12)N1CCCO1
attribute_measured: log10 IC50
recorded_result: 0.55

compound: COc1ccc(-c2nc(CCN)co2)cc1
attribute_measured: log10 IC50
recorded_result: 1.91

compound: O=S(=O)(CCc1ccccc1)Cc1nc(C2CC2)no1
attribute_measured: log10 IC50
recorded_result: 1.03
